Experiment: Cytotoxicity against human Huh5-2 cells assessed as growth inhibition after 3 days by MTS assay
Format: cell-based, Huh-5-2
Entries whose CC50 at 72 h is below 60 µg/mL take 1; entries at or above 60 µg/mL take 0.

Study these solved cases before continuing.
1) Fc1ccc(-c2nc3ccc(-c4ccccc4)cn3c2-c2ccc(-c3ccccc3)cc2)cc1 ... 1
2) Fc1ccc(-c2nc3ccccn3c2-c2cccc(-c3ccoc3)c2)cc1 ... 0
3) COc1ccccc1-c1nc2ccc(-c3ccsc3)cn2c1-c1cccc(-c2ccccc2)c1 ... 1
4) CCOC(=O)c1nc2ccc(-c3ccsc3)cn2c1-c1cccc(-c2ccccc2)c1 ... 0
5) COc1ccc(-c2nc3ccc(-c4ccsc4)cn3c2-c2cccc(-c3ccccc3)c2)cc1 ... 0

## Task Consider the compound Fc1ccc(-c2nc3ccccn3c2-c2cccc(-c3ccco3)c2)cc1 . Is its CC50 at 72 h strictly less than 60 µg/mL?
## Result 1

## Task Consider the compound Fc1ccc(-c2nc3ccccn3c2-c2cccc(-c3cc4ccccc4o3)c2)cc1 . Is its CC50 at 72 h strictly less than 60 µg/mL?
## Result 1

## Task Consider the compound Fc1ccc(-c2nc3ccc(-c4ccsc4)cn3c2-c2cccc(-c3ccccc3)c2)cc1 . Is its CC50 at 72 h strictly less than 60 µg/mL?
## Result 0

## Task Consider the compound Fc1ccc(-c2nc3ccccn3c2-c2ccc(-c3ccccc3)cc2)cc1 . Is its CC50 at 72 h strictly less than 60 µg/mL?
## Result 1

## Task Consider the compound CN1CCN(c2ccc3nc(-c4ccc(F)cc4)c(-c4ccc(-c5ccccc5)cc4)n3n2)CC1 . Is its CC50 at 72 h strictly less than 60 µg/mL?
## Result 1

## Task Consider the compound Fc1ccc(-c2nc3ccc(Sc4ccccc4)cn3c2-c2cccc(-c3ccccc3)c2)cc1 . Is its CC50 at 72 h strictly less than 60 µg/mL?
## Result 0

## Task Consider the compound COc1cccc(-c2nc3ccc(-c4ccsc4)cn3c2-c2cccc(-c3ccccc3)c2)c1 . Is its CC50 at 72 h strictly less than 60 µg/mL?
## Result 0

## Task Consider the compound COc1cccc(-c2cccc(-c3c(-c4ccc(F)cc4)nc4ccccn34)c2)c1 . Is its CC50 at 72 h strictly less than 60 µg/mL?
## Result 1
